Task for the reader: assign each of the following molecules its reported pIC50.
- ASSAYED_TARGET: purified human C5 (Homo sapiens, UniProt P01031)
- Sequence (P01031 19-1676): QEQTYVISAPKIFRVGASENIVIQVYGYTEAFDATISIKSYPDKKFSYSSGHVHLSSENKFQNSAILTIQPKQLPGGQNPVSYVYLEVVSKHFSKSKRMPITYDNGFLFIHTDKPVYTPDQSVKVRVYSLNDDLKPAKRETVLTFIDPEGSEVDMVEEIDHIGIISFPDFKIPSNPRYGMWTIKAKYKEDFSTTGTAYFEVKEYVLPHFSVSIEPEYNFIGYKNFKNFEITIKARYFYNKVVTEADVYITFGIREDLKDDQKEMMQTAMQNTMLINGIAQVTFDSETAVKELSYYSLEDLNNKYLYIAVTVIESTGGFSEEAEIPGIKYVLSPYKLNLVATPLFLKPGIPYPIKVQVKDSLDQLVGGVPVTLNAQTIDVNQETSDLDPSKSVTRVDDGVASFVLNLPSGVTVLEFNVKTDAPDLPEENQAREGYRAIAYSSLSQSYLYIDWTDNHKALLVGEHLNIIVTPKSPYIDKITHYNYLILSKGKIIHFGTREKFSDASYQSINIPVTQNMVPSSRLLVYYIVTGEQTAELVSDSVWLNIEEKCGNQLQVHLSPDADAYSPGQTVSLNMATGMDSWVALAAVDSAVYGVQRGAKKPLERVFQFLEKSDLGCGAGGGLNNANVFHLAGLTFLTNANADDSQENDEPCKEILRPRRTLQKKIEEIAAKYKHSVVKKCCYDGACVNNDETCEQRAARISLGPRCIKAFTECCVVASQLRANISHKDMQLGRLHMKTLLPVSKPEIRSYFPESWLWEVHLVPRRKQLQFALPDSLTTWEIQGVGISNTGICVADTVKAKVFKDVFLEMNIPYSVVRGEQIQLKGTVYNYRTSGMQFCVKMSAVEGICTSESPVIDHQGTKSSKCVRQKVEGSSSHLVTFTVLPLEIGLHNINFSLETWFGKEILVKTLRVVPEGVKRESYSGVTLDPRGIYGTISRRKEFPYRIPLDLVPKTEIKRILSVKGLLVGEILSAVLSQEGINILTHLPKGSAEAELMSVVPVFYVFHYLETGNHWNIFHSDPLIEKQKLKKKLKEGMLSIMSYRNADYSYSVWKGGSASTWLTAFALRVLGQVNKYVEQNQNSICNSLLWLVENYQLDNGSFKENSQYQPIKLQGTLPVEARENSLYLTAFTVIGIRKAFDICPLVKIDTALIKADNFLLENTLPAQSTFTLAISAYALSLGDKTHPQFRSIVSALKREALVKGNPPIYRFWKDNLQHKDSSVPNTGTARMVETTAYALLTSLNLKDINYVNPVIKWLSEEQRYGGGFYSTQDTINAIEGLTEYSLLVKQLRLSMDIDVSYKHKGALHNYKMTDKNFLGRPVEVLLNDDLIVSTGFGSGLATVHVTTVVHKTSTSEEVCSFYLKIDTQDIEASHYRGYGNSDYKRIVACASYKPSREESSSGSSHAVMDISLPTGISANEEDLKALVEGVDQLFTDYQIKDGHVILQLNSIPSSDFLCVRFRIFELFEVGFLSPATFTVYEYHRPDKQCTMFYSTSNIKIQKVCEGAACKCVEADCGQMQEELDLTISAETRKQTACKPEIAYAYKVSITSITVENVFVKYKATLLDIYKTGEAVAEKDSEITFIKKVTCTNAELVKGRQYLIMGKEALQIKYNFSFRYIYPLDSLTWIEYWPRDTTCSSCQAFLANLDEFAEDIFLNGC
- MEASUREMENT_PROTOCOL: Red blood cell hemolysis assay, optical, absorbance 412 nm (Example 3, Table 6)
- Type: cell-based
- CONDITION_SET: antibody-sensitized sheep erythrocytes, 1.5% human C5 depleted sera, 0.5 nM human C5; average where replicates
Give bare numbers, as −log10 of the molar value.

As a guide, the following entries are already answered.
| MOLECULE | pIC50 |
| --- | --- |
| COc1ccc(NC(=O)NCc2ccc3nccn3c2)cc1OCCCC(C)C [SM0065] | 5.18 |
| COc1ccc(NC(=O)NCc2cnccn2)cc1OCCCC(C)C [SM0080] | 4.89 |
| COc1ccc(NC(=O)NCc2ccccc2O)cc1CCCCC(C)C [SM0005] | 7.18 |
| COc1ccc(NC(=O)NC(CO)c2ccco2)cc1OCCCC(C)C (centres unmarked) [SM0032] | 5.98 |
| COc1ccc(NC(=O)N2CCC[C@H]2c2ccccc2)cc1OCCCC(C)C [SM0027] | 6.16 |
| COCCCOc1cc(NC(=O)N[C@@H](CO)c2ccccc2)ccc1OC [SM0084] | 4.79 |

Provide pIC50 values for the following items, in order.
1. COc1ccc(NC(=O)NCc2ccccc2C#N)cc1OCCCC(C)C [SM0067]
2. COc1ccc(NC(=O)NCc2cccc(CN(C)C)c2)cc1OCCCC(C)C [SM0063]

Response given:
5.13
5.21
